target: PAR1 (Homo sapiens (Human)); test: Par-1 FLIPR assay (calcium, HEK 293 cells, PAR1 activating peptide); conditions: PAR1 selective receptor-activating peptide at 80% activation
pIC50: −log10 of the molar value.
quantity_name: pIC50

A: CC1[C@H](/C=C/c2ccc(-c3ccccc3C#N)cn2)C2[C@@H](C)OC(=O)[C@]2(NCc2ccncc2)CC1(F)F (some centres unmarked)
B: C[C@H]1OC(=O)[C@]2(O)CC(F)(F)[C@@H](C)[C@H](/C=C/c3ccc(-c4ccccc4C#N)cn3)[C@H]12
C: C[C@H]1OC(=O)[C@]2(C(O)c3cscn3)CC(F)(F)[C@@H](C)[C@H](/C=C/c3ccc(-c4ccccc4C#N)cn3)[C@H]12 (some centres unmarked) [Example 20b]
Let's sort these by pIC50, smallest first. Go ahead? The response must list the labels following the requested ordering. A, B, C

a: C[C@H]1OC(=O)[C@]2(CC#N)CC(F)(F)[C@@H](C)[C@H](/C=C/c3ccc(-c4ccccc4Cl)cn3)[C@H]12
b: C[C@H]1OC(=O)[C@]2(Cc3ncon3)CC(F)(F)[C@@H](C)[C@H](/C=C/c3ccc(-c4ccccc4Cl)cn3)[C@H]12
Which one would you say has the larger pIC50 value: a , or b ? Refer to your chosen item by its label in the answer. b

====

Molecular target: PAR1 (Homo sapiens (Human), UniProt P25116)
Sequence (P25116 22-425): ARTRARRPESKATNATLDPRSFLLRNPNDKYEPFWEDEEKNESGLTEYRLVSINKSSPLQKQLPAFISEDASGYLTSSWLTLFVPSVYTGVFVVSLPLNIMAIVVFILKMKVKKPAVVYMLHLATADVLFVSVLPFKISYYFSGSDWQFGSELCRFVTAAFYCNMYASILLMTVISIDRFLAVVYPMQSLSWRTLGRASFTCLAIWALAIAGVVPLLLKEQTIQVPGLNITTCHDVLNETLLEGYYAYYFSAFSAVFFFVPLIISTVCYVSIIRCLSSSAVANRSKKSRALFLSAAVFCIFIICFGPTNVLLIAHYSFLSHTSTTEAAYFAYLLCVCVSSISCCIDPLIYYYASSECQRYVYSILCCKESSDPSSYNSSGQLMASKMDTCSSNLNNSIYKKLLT
Assay: Par-1 FLIPR assay (calcium, HEK 293 cells, PAR1 activating peptide)
Settings: PAR1 selective receptor-activating peptide at 80% activation
Protocol: HEK 293 Cells were grown in media containing DMEM, 10% FBS pen/strep/L-Glutamine and non-essential amino acids. The cells were plated in 384-well PDL coated plates at 12000 cells/well and incubated overnight at 37° C./5% CO2. […] The FLIPR reads at an excitation wavelength of 480 nm and an emission wavelength of 535 nm, and performs 60 scans over a 1-2 min reading time. […]
quantity_name: IC50 (nM)

Identify IC50 associated with the compound CC1[C@H](/C=C/c2ccc(-c3ccccc3C#N)cn2)C2[C@@H](C)OC(=O)[C@]2(C(O)c2cscn2)CC1(F)F (stereo partly drawn) [Example 20a] 0.9

Please report the measured IC50 for C[C@H]1OC(=O)[C@]2(CN)CC(F)(F)[C@@H](C)[C@H](/C=C/c3ccc(-c4ccccc4C#N)cn3)[C@H]12 [Example 76] 2.3

In one line, give reported IC50 of the entry CC1[C@H](/C=C/c2ccc(-c3ccccc3C#N)cn2)C2[C@@H](C)OC(=O)[C@]2(NCc2cocn2)CC1(F)F (stereo partly drawn) [Example 42] . 2.4

Source of measurements: patent US9340530B2
